Test system: HepG2
Test: cell viability relative to DMSO; higher = less toxic
Conditions: 72 h; 100 nM
Collected cell viability values appear next to each entry.
The reply should be a number in %, with the unit left off.

>  <compound>
NC(=O)c1noc([C@H](CCCC2CCCCC2)CC(=O)NO)n1

>  <unit string>
%

>  <number>
109

$$$$

Entry CCN(CC)CCO[C@H]1CC[C@@]2(C)C(=CC[C@@H]3[C@@H]2CC[C@]2(C)C(=O)CC[C@@H]32)C1 : reported cell viability = ?
85.3

And then COC(=O)Nc1ccc(-c2nc(N3CCOCC3)c3cnn(C4CCN(Cc5cccnc5)CC4)c3n2)cc1 [WYE-687] , what is it?
92.8

And then CCc1c(C(=O)NCCc2ccc(N3CCCCC3)cc2)[nH]c2ccc(Cl)cc12 , what is it?
92.3

And then CCN[C@H]1C[C@H](C)S(=O)(=O)c2sc(S(N)(=O)=O)cc21 [dorzolamide] , what is it?
104

And then N#CC1(c2ccc(NC(=O)c3cccnc3NCc3ccncc3)cc2)CCCC1 [apatinib] , what is it?
107

And then Cc1ccc(-n2nc(C(C)(C)C)cc2NC(=O)Nc2ccc(OCCN3CCOCC3)c3ccccc23)cc1 [doramapimod] , what is it?
99.7

And then CC(=O)Nc1c(I)c(C(=O)O)c(I)c(N(C)C(C)=O)c1I [metrizoic-acid] , what is it?
105

And then O=C(O)[C@H]1CN(CCCP(=O)(O)O)CCN1 [CPP] , what is it?
98.6

And then OC[C@H]1O[C@@H](n2cnc3c(N[C@H]4CCC[C@@H]4O)ncnc32)[C@H](O)[C@@H]1O , what is it?
95

And then CCCCCCCCCCCCCCCCCCN(CCCCCCCCCCCCCCCCCC)CCCN(CCO)CCO [avridine] , what is it?
98

And then FC(F)(F)c1ccc(N2CCNCC2)nc1Cl , what is it?
92

And then CCC(C)CCCC(=O)N[C@@H](CCN)C(=O)N[C@H](C(=O)N[C@@H](CCN)C(=O)N[C@H]1CCNC(=O)[C@H]([C@@H](C)O)NC(=O)[C@H](CCN)NC(=O)[C@H](CCN)NC(=O)[C@H](CC(C)C)NC(=O)[C@@H](CC(C)C)NC(=O)[C@H](CCN)NC1=O)[C@@H](C)O (stereo partly specified) [colistin] , what is it?
99.3

And then C/C1=C/C[C@@H](/C(C)=C/c2csc(C)n2)OC(=O)C[C@H](O)C(C)(C)C(=O)[C@H](C)[C@@H](O)[C@@H](C)CCC1 [epothilone-D] , what is it?
22.2

And then Fc1ccc(-c2cncc(CN3CCN(c4cccc5c4OCCO5)CC3)c2)cc1 [adoprazine] , what is it?
92.8

And then CN(C)c1ccc(-c2nc3c(N4CCN(CC(=O)Nc5nccs5)CC4)c(Cl)cnc3[nH]2)cc1 , what is it?
92

###

Test system: HepG2
Assay: cell viability relative to DMSO; higher = less toxic
Details: 72 h; 1000 nM
measurement kind: cell viability (%)
The reply should be a number in %, with the unit left off.

>  <compound>
CC[C@H]1[C@@H](O)[C@@H]2[C@H](CC[C@]3(C)[C@@H]([C@H](C)CCOS(=O)(=O)O)CC[C@@H]23)[C@@]2(C)CC[C@@H](O)C[C@@H]12

>  <unit string>
%

>  <number>
99.4

$$$$

Field: cell viability (HepG2). Entry: CN(C(=O)Cc1ccc(Cl)c(Cl)c1)[C@H](CN1CCCC1)c1ccccc1
99.4

And then CCOC(=O)NNc1nncc2ccccc12 , what is it?
112

And then CCCCCCOC(=O)NC(=N)c1ccc(NCc2nc3cc(C(=O)N(CCC(=O)OCC)c4ccccn4)ccc3n2C)cc1 [dabigatran-etexilate] , what is it?
116

And then CCN(CC)CCO[C@H]1CC[C@@]2(C)C(=CC[C@@H]3[C@@H]2CC[C@]2(C)C(=O)CC[C@@H]32)C1 , what is it?
84.5

###

Test system: HepG2
Test: relative viability EC50 (midpoint between 100% and the lowest measured viability); higher = less toxic
Details: 72 h
Collected relative viability EC50 values appear next to each entry.

Entry C[C@@H](CCCCC(=O)Nc1ccc(C(F)(F)F)cc1)NCCc1c[nH]cn1 : reported relative viability EC50 = ?
> 10 µM

And then CCN(CC)CCOC(=O)c1ccc(N)cc1 , what is it?
> 10 µM

And then O=C(CCCc1ccc(-c2ccccc2F)cc1)Nc1ccc(O)cc1 , what is it?
3.08 µM

###

Collected cell viability values appear next to each entry.
System: HepG2
Test: cell viability relative to DMSO; higher = less toxic
Details: 72 h; 1000 nM
The reply should be a number in %, with the unit left off.

>  <compound>
OC[C@H]1O[C@@H](n2cnc3c(N[C@H]4CCC[C@@H]4O)ncnc32)[C@H](O)[C@@H]1O

>  <number>
102

$$$$
>  <compound>
O=C1NC(=O)[C@@H](c2cn3c4c(cccc24)CCC3)[C@@H]1c1c[nH]c2ccccc12 [tivantinib]

>  <number>
39.5

$$$$

Entry COc1ccsc1CNCC[C@@]1(c2ccccn2)CCOC2(CCCC2)C1 : reported cell viability = ?
102

###

Collected drug sensitivity score values appear next to each entry.
Tested on: Caco-2
Test: drug sensitivity score (DSS) for viability; higher = more toxic; extreme values may be limits of the assay
Conditions: 72 h
Keep the answer to the number alone.

Entry CC(=O)N(CC(C)C(=O)O)c1c(I)cc(I)c(N)c1I (centres undefined) [iocetamic-acid] : reported drug sensitivity score = ?
0

And then COc1cc2nc(N3CCN(C(=O)c4ccco4)CC3)nc(N)c2cc1OC [prazosin] , what is it?
0

And then Cc1ccccc1N1CCN(S(=O)(=O)C[C@]23CC[C@H](C[C@@H]2NC(=O)[C@@H](N)CCS(C)(=O)=O)C3(C)C)CC1 , what is it?
0

And then O=c1cc(N2CCOCC2)oc2c1ccc1ccccc12 [NU-7026] , what is it?
0.5

And then CC(=O)[O-].CC(=O)[O-].N.NC1CCCCC1.[Cl-].[Cl-].[Pt+4] [satraplatin] , what is it?
4.3

###

Collected cell viability values appear next to each entry.
Test system: Caco-2
Test: cell viability relative to DMSO; higher = less toxic
Details: 72 h; 100 nM
The reply should be a number in %, with the unit left off.

>  <compound>
Nc1ccc(S(=O)(=O)Nc2ccnn2-c2ccccc2)cc1

>  <number>
102

$$$$
>  <compound>
NCCCNCCCCNCCCN

>  <number>
93.5

$$$$
>  <compound>
CC(=O)CCCCn1c(=O)c2c(ncn2C)n(C)c1=O

>  <number>
97

$$$$
>  <compound>
N#C[C@@H]1C[C@@H]2C[C@@H]2N1C(=O)[C@@H](N)C12CC3CC(CC(O)(C3)C1)C2

>  <number>
95.8

$$$$
>  <compound>
Cc1cc(N)c2ccccc2[n+]1CCCCCCCCCC[n+]1c(C)cc(N)c2ccccc21

>  <number>
98.9

$$$$
>  <compound>
COc1ccc(-c2nc(-c3ccc(-c4cccc(Cl)c4)o3)[nH]c2-c2ccc(OC)cc2)cc1

>  <number>
109

$$$$
>  <compound>
O=C1NC(=O)[C@@H](c2cn3c4c(cccc24)CCC3)[C@@H]1c1c[nH]c2ccccc12 [tivantinib]

>  <number>
103

$$$$
>  <compound>
C[C@]12CC[C@@H]3c4ccc(O)cc4CC[C@H]3[C@@H]1CC[C@@H]2OC(=O)CCC1CCCC1 [estradiol-cypionate]

>  <number>
85.4

$$$$

Pending compound:
Entry O=c1ccc2cc(O[C@@H]3O[C@H](CO)[C@@H](O)[C@H](O)[C@H]3O)c(O)cc2o1 : reported cell viability = ?
91.7

###

Collected cell viability values appear next to each entry.
Tested on: U2OS
Experiment: cell viability relative to DMSO; higher = less toxic
Conditions: 72 h; 10000 nM
The reply should be a number in %, with the unit left off.

Here are 8 compounds together with their reported answers.
>  <compound>
O=c1c(-c2ccc(O)cc2)coc2cc(O)cc(O)c12 [genistein]

>  <measurement kind>
cell viability

>  <number>
95.4

$$$$
>  <compound>
Nc1cccc2c(=O)[nH][nH]c(=O)c12 [monosodium-alpha-luminol]

>  <measurement kind>
cell viability

>  <number>
103

$$$$
>  <compound>
NC(=O)N1C(=O)/C(=C(\O)c2cccs2)c2cc(Cl)ccc21 [tenidap]

>  <measurement kind>
cell viability

>  <number>
99

$$$$
>  <compound>
CC(C)Oc1ccc(-c2nc(-c3cccc4c3CC[C@H]4NCCC(=O)O)no2)cc1C#N [RP-001]

>  <measurement kind>
cell viability

>  <number>
112

$$$$
>  <compound>
CCc1cccc2c3c([nH]c12)C(CC)(CC(=O)O)OCC3 (stereo not drawn) [etodolac]

>  <measurement kind>
cell viability

>  <number>
93.4

$$$$
>  <compound>
CCCNC(C)(C)COC(=O)c1ccccc1 [meprylcaine]

>  <measurement kind>
cell viability

>  <number>
99.5

$$$$
>  <compound>
CCC(NC(C)C)C(O)c1ccc(O)c2[nH]c(=O)ccc12 (stereo not drawn) [procaterol]

>  <measurement kind>
cell viability

>  <number>
101

$$$$
>  <compound>
C[C@H](Oc1cc(-c2cnn(C3CCNCC3)c2)cnc1N)c1c(Cl)ccc(F)c1Cl [crizotinib-(S)]

>  <measurement kind>
cell viability

>  <number>
41.1

$$$$

Field: cell viability (U2OS). Entry: CC[C@@]1(O)C(=O)OCc2c1cc1n(c2=O)Cc2c-1nc1cc(F)c(C)c3c1c2[C@@H](N)CC3 [exatecan-mesylate]
4.1

And then CC(C)(Sc1ccncc1-c1ccc(C#N)c2ccccc12)C(=O)O [verinurad] , what is it?
103

And then O=C(Nc1cnc(Cl)nc1)c1ccc(F)c(F)c1 , what is it?
98.9

And then COc1ccsc1CNCC[C@@]1(c2ccccn2)CCOC2(CCCC2)C1 [TRV130] , what is it?
100

And then O=C(O)C[C@H]1CC[C@H](c2ccc(NC(=O)c3nnc(Nc4ccc(F)c(F)c4)o3)cc2)CC1 [AZD3988] , what is it?
94.7

And then O=C(O)C[C@H](O)C[C@H](O)/C=C/c1c(C2CC2)nc2ccccc2c1-c1ccc(F)cc1 [pitavastatin] , what is it?
9.6

And then O=C(Nc1ccc2[nH]ccc2c1)c1ccccc1 [OAC2] , what is it?
95.3
